test system: MOLT-4 cells; test: MOLT-4 cell viability, MTT assay; assay type: cell-based; details: Homo sapiens, MOLT-4, 48 h, 48 h exposure
readout: IC50 (µM)

1) CN(C)CC#Cc1ccc(OCCCc2sc(N(C)c3cc(C4CC4)c(Nc4nc5ccccc5s4)nn3)nc2C(=O)O)c(F)c1 ... 0.000444
2) CNCC#Cc1ccc(OCCCc2sc(N(CCCCCO)c3cc(C)c(Nc4nc5ccccc5s4)nn3)nc2C(=O)O)c(F)c1 ... 0.0181
3) CNCCCCN(c1cc(C)c(Nc2nc3ccccc3s2)nn1)c1nc(C(=O)O)c(CCCOc2ccc(C#CCN(C)C)cc2F)s1 ... 3.41
4) Cc1cc(N(C)c2nc(C(=O)O)c(N3CCC(COc4ccccc4)CC3)s2)nnc1Nc1nc2ccccc2s1 ... 1.61
5) CNCC#Cc1ccc(OCCCc2sc(N(CCCCCC[N+](C)(C)C)c3cc(C)c(Nc4nc5ccccc5s4)nn3)nc2C(=O)[O-])c(F)c1 ... 2.18
6) Cc1cc(N(C)c2nc(C(=O)O)c(CCCOc3ccc(C#CC[N+](C)(C)CCCS(=O)(=O)[O-])cc3F)s2)nnc1Nc1nc2ccccc2s1 ... 0.483
7) CCCN(c1cc(C)c(Nc2nc3ccccc3s2)nn1)c1nc(C(=O)O)cs1 ... 11.7
8) Cc1cc(N(CCCCCN(C)C2CCNCC2)c2nc(C(=O)O)c(CCCOc3ccc(C#CCN(C)C)cc3F)s2)nnc1Nc1nc2ccccc2s1 ... 0.43
9) Cc1cc(N(C)c2nc(C(=O)O)c(CCCOc3ccc(C#CCN4CCOCC4)cc3F)s2)nnc1Nc1nc2ccccc2s1 ... 0.00159
10) Cc1cc(N(C)c2ccc(-c3cnn(CC45CC6(C)CC(C)(C4)CC(OCCNCc4cccc(O)c4)(C6)C5)c3C)c(C(=O)O)n2)nnc1Nc1nc2ccccc2s1 ... 0.000284
11) Cc1cc(N(CCCCN2CCNCC2)c2nc(C(=O)O)c(CCCOc3ccc(C#CCN(C)C)cc3F)s2)nnc1Nc1nc2ccccc2s1 ... 0.184
12) Cc1cc(N(CC(O)CO)c2nc(C(=O)O)c(CCCOc3ccc(C#CCN(C)C)cc3F)s2)nnc1Nc1nc2ccccc2s1 (centres unmarked) ... 0.28

----------
system: H146 cells; assay: H146 cell viability, MTT assay; format: cell-based; settings: Homo sapiens, NCI-H146, 48 h, 48 h exposure
pIC50: −log10 of the molar value.
Reported pIC50 values for a set of molecules
readout: pIC50

1. CNCC#Cc1ccc(OCCCc2sc(N(CCCCC[N+](C)(C)CCCO)c3cc(C)c(Nc4nc5ccccc5s4)nn3)nc2C(=O)[O-])c(F)c1 [Example 230] ... 5.86
2. Cc1cc(N(CCCCCNCCN2CCOCC2)c2nc(C(=O)O)c(CCCOc3ccc(C#CCN(C)C)cc3F)s2)nnc1Nc1nc2ccccc2s1 [Example 166] ... 6.85
3. CNCC#Cc1ccc(OCCCc2sc(N(CCCC(O)CN3CCOCC3)c3cc(C)c(Nc4nc5ccccc5s4)nn3)nc2C(=O)O)c(F)c1 (stereo not drawn) [Example 113] ... 7.89
4. Cc1cc(N(C)c2nc(C(=O)O)c(C3CN(C(=O)OC(C)(C)C)C3)s2)nnc1Nc1nc2ccccc2s1 [Example 135] ... 5.28
